Reported activation at 50 µM values for a set of compounds
measured_target: human Kv1.1/Kvβ1 potassium ion channel complex (Homo sapiens)
Construct: expressed in transfected cells; host or cells: Xenopus oocytes injected with cRNA
Sequence (Q09470 whole entry, one chain of several): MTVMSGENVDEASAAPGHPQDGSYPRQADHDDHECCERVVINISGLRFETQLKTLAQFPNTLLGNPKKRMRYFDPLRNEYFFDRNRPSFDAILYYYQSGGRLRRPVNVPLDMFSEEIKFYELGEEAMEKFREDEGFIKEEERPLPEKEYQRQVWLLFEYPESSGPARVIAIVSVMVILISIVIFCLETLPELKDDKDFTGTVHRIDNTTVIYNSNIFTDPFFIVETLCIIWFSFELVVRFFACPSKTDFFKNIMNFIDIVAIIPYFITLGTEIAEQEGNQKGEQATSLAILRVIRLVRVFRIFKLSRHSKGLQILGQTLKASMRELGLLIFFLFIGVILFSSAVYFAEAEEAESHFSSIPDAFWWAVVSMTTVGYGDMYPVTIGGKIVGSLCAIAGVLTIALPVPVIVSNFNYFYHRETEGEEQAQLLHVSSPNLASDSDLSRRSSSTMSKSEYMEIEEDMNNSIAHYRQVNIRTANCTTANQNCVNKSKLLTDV
method_description: Xenopus oocytes current assay (inhibition of inactivation, voltage clamp)
Assay type: cell-based
condition_context: Xenopus oocytes expressing hKv1.1/hKvβ1, relative to control bath solution, read-out: Percent Increase in Steady State Current Of human Kv1.1/Kvβ1 @ a concentration of 50 μM

compound: CC1(C)C2CC[C@]1(C)C(=O)C(C(=O)Nc1cc(C(F)(F)F)cc(C(F)(F)F)c1)C2=O (stereo partly shown) [Example 1]
measured_target: human Kv1.1/Kvβ1 potassium ion channel complex (Homo sapiens)
activation at 50 µM [%]: 16
//
compound: CC1(C)C2CC[C@@]1(C)C(=O)C(C(=O)Nc1ccc(Cl)c(C(F)(F)F)c1)C2=O (stereo partly shown) [Example 16]
measured_target: human Kv1.1/Kvβ1 potassium ion channel complex (Homo sapiens)
activation at 50 µM [%]: 45
//
compound: CC1(C)C2CC1C(=O)C(C(=O)Nc1ccc(F)c(Cl)c1)C2=O (stereo not shown) [Example 30]
measured_target: human Kv1.1/Kvβ1 potassium ion channel complex (Homo sapiens)
activation at 50 µM [%]: 124
//
compound: O=C(Nc1cc(C(F)(F)F)cc(C(F)(F)F)c1)C1C(=O)C2CCC(C2)C1=O (stereo not shown) [Example 23]
measured_target: human Kv1.1/Kvβ1 potassium ion channel complex (Homo sapiens)
activation at 50 µM [%]: 137
//
compound: CC1(C)C2CC[C@]1(C)C(=O)C(C(=O)Nc1ccc(Cl)c(Cl)c1)C2=O (stereo partly shown) [Example 4]
measured_target: human Kv1.1/Kvβ1 potassium ion channel complex (Homo sapiens)
activation at 50 µM [%]: 11
//
compound: CC1(C)C2CC[C@@]1(C)C(=O)C(C(=O)Nc1cc(Cl)cc(Cl)c1)C2=O (stereo partly shown) [Example 13]
measured_target: human Kv1.1/Kvβ1 potassium ion channel complex (Homo sapiens)
activation at 50 µM [%]: 19
//
compound: CC1(C)C2CC1C(=O)C(C(=O)Nc1cccc(C(F)(F)F)c1)C2=O (stereo not shown) [Example 29]
measured_target: human Kv1.1/Kvβ1 potassium ion channel complex (Homo sapiens)
activation at 50 µM [%]: 67
//
compound: CC1(C)C2CC[C@]1(C)C(=O)C(C(=O)Nc1cccc(C(F)(F)F)c1)C2=O (stereo partly shown) [Example 2]
measured_target: human Kv1.1/Kvβ1 potassium ion channel complex (Homo sapiens)
activation at 50 µM [%]: 22
//
compound: CC1(C)C2CC[C@@]1(C)C(=O)C(C(=O)Nc1cc(C(F)(F)F)cc(C(F)(F)F)c1)C2=O (stereo partly shown) [Example 12]
measured_target: human Kv1.1/Kvβ1 potassium ion channel complex (Homo sapiens)
activation at 50 µM [%]: 22
//
compound: CC1(C)C2CC1C(=O)C(C(=O)Nc1ccc(C(F)(F)F)cc1)C2=O (stereo not shown) [Example 28]
measured_target: human Kv1.1/Kvβ1 potassium ion channel complex (Homo sapiens)
activation at 50 µM [%]: 190
//
compound: CC1(C)C2CC[C@@]1(C)C(=O)C(C(=O)Nc1ccc(F)c(Cl)c1)C2=O (stereo partly shown) [Example 20]
measured_target: human Kv1.1/Kvβ1 potassium ion channel complex (Homo sapiens)
activation at 50 µM [%]: 267
//
compound: CC1(C)C2CC[C@@]1(C)C(=O)C(C(=O)Nc1ccc(F)c(C(F)(F)F)c1)C2=O (stereo partly shown) [Example 21]
measured_target: human Kv1.1/Kvβ1 potassium ion channel complex (Homo sapiens)
activation at 50 µM [%]: 229
//
compound: CC1(C)C2CC1C(=O)C(C(=O)Nc1cccc(Cl)c1)C2=O (stereo not shown) [Example 35]
measured_target: human Kv1.1/Kvβ1 potassium ion channel complex (Homo sapiens)
activation at 50 µM [%]: 107
//
compound: CC1(C)C2CC[C@]1(C)C(=O)C(C(=O)Nc1ccc(F)c(Cl)c1)C2=O (stereo partly shown) [Example 10]
measured_target: human Kv1.1/Kvβ1 potassium ion channel complex (Homo sapiens)
activation at 50 µM [%]: 137
//
compound: O=C(Nc1ccc(Cl)c(C(F)(F)F)c1)C1C(=O)C2CCC(C2)C1=O (stereo not shown) [Example 25]
measured_target: human Kv1.1/Kvβ1 potassium ion channel complex (Homo sapiens)
activation at 50 µM [%]: 47
//
compound: CC1(C)C2CC[C@@]1(C)C(=O)C(C(=O)Nc1ccc(C(F)(F)F)cc1)C2=O (stereo partly shown) [Example 18]
measured_target: human Kv1.1/Kvβ1 potassium ion channel complex (Homo sapiens)
activation at 50 µM [%]: 96
//
compound: CC1(C)C2CC1C(=O)C(C(=O)Nc1ccc(Cl)cc1)C2=O (stereo not shown) [Example 36]
measured_target: human Kv1.1/Kvβ1 potassium ion channel complex (Homo sapiens)
activation at 50 µM [%]: 125
//
compound: O=C(Nc1cc(C(F)(F)F)cc(C(F)(F)F)c1)C1C(=O)C2CCC(CC2)C1=O (stereo not shown) [Example 37]
measured_target: human Kv1.1/Kvβ1 potassium ion channel complex (Homo sapiens)
activation at 50 µM [%]: 68
//
compound: CC1(C)C2CC1C(=O)C(C(=O)Nc1ccc(Cl)c(Cl)c1)C2=O (stereo not shown) [Example 32]
measured_target: human Kv1.1/Kvβ1 potassium ion channel complex (Homo sapiens)
activation at 50 µM [%]: 311
